Please respond with reported MIC for every item in the list.
Tested on: Staphylococcus aureus
experiment_notes: Antibacterial activity against Staphylococcus aureus ATCC 25923 after 24 hrs by broth microdilution method
Type: functional
measurement_parameters: ATCC 25923, 24 h

# MIC lookup, item O=C(N[C@H](CO)[C@H](O)c1ccc([N+](=O)[O-])cc1)C(Cl)Cl [CHLORAMPHENICOL]
1.5 to 3 µM

# MIC lookup, item CC(C)=CCc1cc(O)cc2c1OC(C=C(C)C)C1=C2C(=O)C2=C(C1=O)S(=O)(=O)CCN2 (configuration not stated)
> 200 µM

# MIC lookup, item CC(C)=CCC/C(C)=C/Cc1cc2c(cc1O)C1=C(C(=O)C3=C(NCCS3(=O)=O)C1=O)C(/C=C(\C)CCC=C(C)C)O2 (configuration not stated)
> 200 µM

# MIC lookup, item CC(C)=CCC/C(C)=C/CC/C(C)=C/C1Oc2c(cc(O)c3c2-c2cc(O)ccc2OC3/C=C(\C)CC/C=C(\C)CCC=C(C)C)C2=C1C(=O)C=CC2=O (configuration not stated)
> 200 µM

# MIC lookup, item COC1=CC(=O)C2=C(C1=O)c1cc(O)ccc1OC2/C=C(\C)CC/C=C(\C)CCC=C(C)C (configuration not stated)
25 µM

# MIC lookup, item CC(C)=CCC/C(C)=C/Cc1cc2c(cc1O)C1=C(C(=O)C3=C(C1=O)S(=O)(=O)CCN3)C(/C=C(\C)CCC=C(C)C)O2 (configuration not stated)
> 200 µM

# MIC lookup, item CC(C)=CCC/C(C)=C/Cc1cc(O)cc2c1OC(/C=C(\C)CCC=C(C)C)C1=C2C(=O)C2=C(C1=O)S(=O)(=O)CCN2 (configuration not stated)
> 200 µM

---

experiment_notes: Inhibition of recombinant human farnesyltransferase using dansyl-GCVLS as substrate in presence of farnesyl pyrophosphate after 15 mins by fluorescence assay
pIC50: −log10 of the molar value.
Please respond with reported pIC50 for every item in the list.

# pIC50 lookup, item COC1=CC(=O)C2=C(C1=O)c1cc(O)ccc1OC2/C=C(\C)CC/C=C(\C)CCC=C(C)C (stereo not drawn)
< 4.65

# pIC50 lookup, item CC(C)=CCC/C(C)=C/CC/C(C)=C/Cc1cc2c(cc1O)C1=C(C(=O)C3=C(NCCS3(=O)=O)C1=O)C(/C=C(\C)CC/C=C(\C)CCC=C(C)C)O2 (stereo not drawn)
6.35

# pIC50 lookup, item CC(C)=CCc1cc2c(cc1O)C1=C(C(=O)C3=C(NCCS3(=O)=O)C1=O)C(C=C(C)C)O2 (stereo not drawn)
< 4.66

---

experiment_notes: Inhibition of Trypanosoma brucei recombinant farnesyltransferase using dansyl peptide containing GCAIM as substrate in presence of farnesyl pyrophosphate after 15 mins by fluorescence assay
measured_parameter: IC50 (nM)
Provide only the numeric value, understood in nM.

# IC50 lookup, item CC(C)=CCC/C(C)=C/CC/C(C)=C/Cc1cc(O)cc2c1OC(/C=C(\C)CC/C=C(\C)CCC=C(C)C)C1=C2C(=O)C2=C(C1=O)S(=O)(=O)CCN2 (configuration not stated)
350

# IC50 lookup, item CC(C)=CCC/C(C)=C/Cc1cc(O)cc2c1OC(/C=C(\C)CCC=C(C)C)C1=C2C(=O)C2=C(NCCS2(=O)=O)C1=O (configuration not stated)
220

# IC50 lookup, item CC(C)=CCC/C(C)=C/Cc1cc2c(cc1O)C1=C(C(=O)C3=C(C1=O)S(=O)(=O)CCN3)C(/C=C(\C)CCC=C(C)C)O2 (configuration not stated)
98

# IC50 lookup, item CC(C)=CCC/C(C)=C/Cc1cc(O)cc2c1OC(/C=C(\C)CCC=C(C)C)C1=C2C(=O)C2=C(C1=O)S(=O)(=O)CCN2 (configuration not stated)
740

Where these numbers come from: ChEMBL document CHEMBL4052727
